The entries below come with measured Neutralization IC50 (RSV subtype A) values attached.
Target: RSV F on RSV-A2 virus (Respiratory syncytial virus, RSV-A2, UniProt P03420 26-574)
Assay: cell-based or functional assay

Solved entries (count: 4):
# Binder, Value
measured = [
    ("ADI-41561 (antibody, V domains shown) VH: QVQLVQSGPTLVKPTQTLTLTCSFSGFSLTNTGVGVGWIRQPPGKALEWLALIYWDDDKRYRPSLKSRLTITKDTSKSQVVLTMTNMDPLDTATYYCAHRRSAYDPIYFDYWGQGALVTVSS VL: DIRVTQSPSSVSASVGDRVTITCRASRSINNWLAWYQQKPGKAPKLLIYAASSLQSGVPSRFSGSGYGTDFTLTISSLQPEDFATYYCQQAHSFPSITFGQGTRLEIK", "> 25 µg/mL"),
    ("ADI-41584 (antibody, V domains shown) VH: QVQLVESGAEVKKPGASVKVSCKASGYTFTDYYIHWVRQAPGQGLEWVGRINPNSGYINYAQKFQGRLTMTRDTSISTAYLELSSLRSDDTAVYYCTRLPLLEPLNFFDYWGQGTLVTVSS VL: QSVVTQPPSVSGAPGQRVTISCTGSSSNIGAGYDVHWYQQLPGTAPKVLIYGNNNRPSGVPDRFSGSKSGTSASLAITGLQAEDEADYYCQSFDSSLSSSYVFGTGTKLTVL", "> 25 µg/mL"),
    ("ADI-41812 (antibody, V domains shown) VH: EVQLVESGGGLVKPGGSLRLSCAASGFTFSSYSMNWVRQAPGKGLEWVSSISAGSSYTDYAESVKGRFTISRDNAKNSLYLKMNSLRAEDTAVYYCARDPGYCSSNSCTVAMDVWGQGTTVTVSS VL: SYELTQPPSVSGAPGQRVTISCTGSSSNIGAGYDVHWYQQLPGTAPKLLIYGNNNRPSGVPDRFSGSKSGTSASLAITGLQAEDEADYYCQSYDRTLVIFGGGTKLTVL", "0.17 µg/mL"),
    ("ADI-41581 (antibody, V domains shown, also called Ab 855; Antibody Number 855) VH: EVQLLESGSELKKPGASVKISCKTSGYTFTNYLMNWVRQAPGQGLEWMGWINTHTGNPTYAQDFTGRFVFSLDTSVNTAYLQISSLKAEDTAIYYCARDGLEAFSGYNGVDYWGQGTLVTVSS VL: DIVMTQTPLSLPVTPGEPASISCRSSPSLLHSNGYNYLDWYLQKPGQSPQLLIYLGSTRASGVPDRFSGSGSGTDFTLRISRVEAEDVGVYYCMQALQIPLTFGQGTKLEIK", "> 25 µg/mL"),
]

Consider the additional binder presented here.
For the binder ADI-41558 (antibody, V domains shown, also called Ab 840; Antibody Number 840) VH: EVQLLESGGGLVKPGGSLRLSCEVSGFPFSDYYVSWIRQAPGKGLEWLSYSSRGGIYTNYADSVKGRFTISRDNDKNSLFLQMNSLRAEDTAVYYCARDRSDIWSGRVGFDYWGQGTLVTVSS VL: DIVMTQSPATLSLSPGERATLSCRASQSVSSSYLAWYQQKPGQAPRLLIYGASSRATGIPDRFSGSGSGTDFTLTISRLEPEDFAVYYCQQYNKSPPGYIFGPGTKVDIK , what Neutralization IC50 (RSV subtype A) is on record?
> 25 µg/mL
